Recorded pIC50 by entry
Tested on: HuTu80
Assay: Cell proliferation assay (Alamar Blue)
Assay type: cell-based
Conditions: Homo sapiens, 144 h; HuTu80 tumor cell line; 6 days culture
Protocol: 1. Instruments and Materials • Thermo 311 CO2 incubator; Haier biosafety cabinet; Molecular Devices microplate reader; Xiangyi brand L530 desktop low speed centrifuge; Olympus IX51 inverted fluorescence microscope, DMEM, RPMI 1640, MEM, DMEM/F12 1:1 medium, Fetal bovine serum, 0.25% trypsin solution, phosphate buffer (Thermo Fisher Shanghai Co., Ltd.); sigma dimethyl sulfoxide (DMSO), resazurin; 54 commercial tumor cell lines (including 26 liver cancer cell lines). […]
pIC50: −log10 of the molar value.

compound	target under test	bound operator	pIC50
Cc1ccc(F)c(NC(=O)Nc2ccc(-c3cccc4[nH]nc(NC(=O)CCCCCNC(=O)C[C@H](N)C(=O)N[C@@H](CCC(=O)N[C@@H](CCC(=O)N[C@@H](CCC(=O)N[C@@H](CCC(=O)O)C(=O)O)C(=O)O)C(=O)O)C(=O)O)c34)cc2)c1	HuTu80	<	4.00
Cc1ccc(F)c(NC(=O)Nc2ccc(-c3cccc4[nH]nc(NC(=O)C[C@H](N)C(=O)N[C@@H](CCC(=O)O)C(=O)O)c34)cc2)c1	HuTu80	=	5.70
Cc1ccc(F)c(NC(=O)Nc2ccc(-c3cccc4[nH]nc(NC(=O)CCCCCCCCCCCNC(=O)C[C@H](N)C(=O)N[C@@H](CCC(=O)N[C@@H](CCC(=O)N[C@@H](CCC(=O)N[C@@H](CCC(=O)O)C(=O)O)C(=O)O)C(=O)O)C(=O)O)c34)cc2)c1	HuTu80	=	4.30
Cc1ccc(F)c(NC(=O)Nc2ccc(-c3cccc4[nH]nc(NC(=O)C[C@H](N)C(=O)O)c34)cc2)c1	HuTu80	=	5.74
Cc1ccc(F)c(NC(=O)Nc2ccc(-c3cccc4[nH]nc(NC(=O)C[C@H](N)C(=O)N[C@@H](CCC(=O)N[C@@H](CCC(=O)N[C@@H](CCC(=O)N[C@@H](CCC(=O)O)C(=O)O)C(=O)O)C(=O)O)C(=O)O)c34)cc2)c1	HuTu80	=	5.37

====

Readings of IC50 for the listed molecules
System: HT55
Test: Cell proliferation assay (Alamar Blue)
Assay type: cell-based
Conditions: Homo sapiens, 144 h; HT55 tumor cell line; 6 days culture
readout: IC50 (µM)

compound	unit spec	bound operator	reported result
Cc1ccc(F)c(NC(=O)Nc2ccc(-c3cccc4[nH]nc(NC(=O)C[C@H](N)C(=O)N[C@@H](CCC(=O)N[C@@H](CCC(=O)N[C@@H](CCC(=O)N[C@@H](CCC(=O)O)C(=O)O)C(=O)O)C(=O)O)C(=O)O)c34)cc2)c1	µM	=	40.1
Cc1ccc(F)c(NC(=O)Nc2ccc(-c3cccc4[nH]nc(NC(=O)CCCCCNC(=O)C[C@H](N)C(=O)N[C@@H](CCC(=O)N[C@@H](CCC(=O)N[C@@H](CCC(=O)N[C@@H](CCC(=O)O)C(=O)O)C(=O)O)C(=O)O)C(=O)O)c34)cc2)c1	µM	>	100
Cc1ccc(F)c(NC(=O)Nc2ccc(-c3cccc4[nH]nc(NC(=O)C[C@H](N)C(=O)N[C@@H](CCC(=O)O)C(=O)O)c34)cc2)c1	µM	=	24.7
Cc1ccc(F)c(NC(=O)Nc2ccc(-c3cccc4[nH]nc(NC(=O)CCCCCCCCCCCNC(=O)C[C@H](N)C(=O)N[C@@H](CCC(=O)N[C@@H](CCC(=O)N[C@@H](CCC(=O)N[C@@H](CCC(=O)O)C(=O)O)C(=O)O)C(=O)O)C(=O)O)c34)cc2)c1	µM	>	100
Cc1ccc(F)c(NC(=O)Nc2ccc(-c3cccc4[nH]nc(NC(=O)C[C@H](N)C(=O)O)c34)cc2)c1	µM	=	18.5

====

Reported IC50 values are given for each entry in this list.
Tested on: SNU739
Assay: Cell proliferation assay (Alamar Blue)
Type: cell-based
Details: SNU739 liver cancer cell line; 6 days culture

compound	target under test	IC50
Cc1ccc(F)c(NC(=O)Nc2ccc(-c3cccc4[nH]nc(NC(=O)CCCCCCCCCCCNC(=O)C[C@H](N)C(=O)N[C@@H](CCC(=O)O)C(=O)O)c34)cc2)c1 [Compound 7]	SNU739	> 100 µM
Cc1ccc(F)c(NC(=O)Nc2ccc(-c3cccc4[nH]nc(NC(=O)CCCCCCCCCCCNC(=O)C[C@H](N)C(=O)N[C@@H](CCC(=O)N[C@@H](CCC(=O)N[C@@H](CCC(=O)N[C@@H](CCC(=O)N[C@@H](CCC(=O)N[C@@H](CCC(=O)N[C@@H](CCC(=O)N[C@@H](CCC(=O)N[C@@H](CCC(=O)O)C(=O)O)C(=O)O)C(=O)O)C(=O)O)C(=O)O)C(=O)O)C(=O)O)C(=O)O)C(=O)O)c34)cc2)c1 [Compound 9]	SNU739	> 100 µM

====

Entries and their measured IC50 follow.
System: JHH4
Test: Cell proliferation assay (Alamar Blue)
Format: cell-based
Settings: JHH-4, 144 h; JHH4 liver cancer cell line; 6 days culture

compound	target under test	bound operator	IC50 / µM
Cc1ccc(F)c(NC(=O)Nc2ccc(-c3cccc4[nH]nc(NC(=O)CCCCCCCCCCCNC(=O)C[C@H](N)C(=O)N[C@@H](CCC(=O)N[C@@H](CCC(=O)N[C@@H](CCC(=O)N[C@@H](CCC(=O)O)C(=O)O)C(=O)O)C(=O)O)C(=O)O)c34)cc2)c1	JHH4	>	100
Cc1ccc(F)c(NC(=O)Nc2ccc(-c3cccc4[nH]nc(NC(=O)C[C@H](N)C(=O)N[C@@H](CCC(=O)N[C@@H](CCC(=O)N[C@@H](CCC(=O)N[C@@H](CCC(=O)O)C(=O)O)C(=O)O)C(=O)O)C(=O)O)c34)cc2)c1	JHH4	=	36.8
Cc1ccc(F)c(NC(=O)Nc2ccc(-c3cccc4[nH]nc(NC(=O)C[C@H](N)C(=O)O)c34)cc2)c1	JHH4	=	14.4
Cc1ccc(F)c(NC(=O)Nc2ccc(-c3cccc4[nH]nc(NC(=O)CCCCCNC(=O)C[C@H](N)C(=O)N[C@@H](CCC(=O)N[C@@H](CCC(=O)N[C@@H](CCC(=O)N[C@@H](CCC(=O)O)C(=O)O)C(=O)O)C(=O)O)C(=O)O)c34)cc2)c1	JHH4	>	100
Cc1ccc(F)c(NC(=O)Nc2ccc(-c3cccc4[nH]nc(NC(=O)C[C@H](N)C(=O)N[C@@H](CCC(=O)O)C(=O)O)c34)cc2)c1	JHH4	=	25

====

System: NCI-H2170
Assay: Cell proliferation assay (Alamar Blue)
Format: cell-based
Conditions: NCI-H2170 tumor cell line; 6 days culture
pIC50: −log10 of the molar value.

molecule	target under test	bound operator	pIC50
Cc1ccc(F)c(NC(=O)Nc2ccc(-c3cccc4[nH]nc(NC(=O)CCCCCCCCCCCNC(=O)C[C@H](N)C(=O)N[C@@H](CCC(=O)N[C@@H](CCC(=O)N[C@@H](CCC(=O)N[C@@H](CCC(=O)N[C@@H](CCC(=O)N[C@@H](CCC(=O)N[C@@H](CCC(=O)N[C@@H](CCC(=O)N[C@@H](CCC(=O)O)C(=O)O)C(=O)O)C(=O)O)C(=O)O)C(=O)O)C(=O)O)C(=O)O)C(=O)O)C(=O)O)c34)cc2)c1 [Compound 9]	NCI-H2170	<	4.00
Cc1ccc(F)c(NC(=O)Nc2ccc(-c3cccc4[nH]nc(NC(=O)CCCCCNC(=O)C[C@H](N)C(=O)N[C@@H](CCC(=O)O)C(=O)O)c34)cc2)c1 [Compound 4]	NCI-H2170	<	4.00
Cc1ccc(F)c(NC(=O)Nc2ccc(-c3cccc4[nH]nc(NC(=O)CCCCCCCCCCCNC(=O)C[C@H](N)C(=O)N[C@@H](CCC(=O)O)C(=O)O)c34)cc2)c1 [Compound 7]	NCI-H2170	=	4.32
Cc1ccc(F)c(NC(=O)Nc2ccc(-c3cccc4[nH]nc(NC(=O)CCCCCCCCCCCNC(=O)C[C@H](N)C(=O)O)c34)cc2)c1 [Compound 12]	NCI-H2170	=	4.23
Cc1ccc(F)c(NC(=O)Nc2ccc(-c3cccc4[nH]nc(NC(=O)CCCCCNC(=O)C[C@H](N)C(=O)O)c34)cc2)c1 [Compound 11]	NCI-H2170	<	4.00

====

System: Alexander cells
Assay: Cell proliferation assay (Alamar Blue)
Type: cell-based
Conditions: 144 h; Alexander cells liver cancer cell line; 6 days culture

compound	IC50
Cc1ccc(F)c(NC(=O)Nc2ccc(-c3cccc4[nH]nc(NC(=O)C[C@H](N)C(=O)O)c34)cc2)c1	3.79 µM
Cc1ccc(F)c(NC(=O)Nc2ccc(-c3cccc4[nH]nc(NC(=O)C[C@H](N)C(=O)N[C@@H](CCC(=O)O)C(=O)O)c34)cc2)c1	4.01 µM
Cc1ccc(F)c(NC(=O)Nc2ccc(-c3cccc4[nH]nc(NC(=O)CCCCCCCCCCCNC(=O)C[C@H](N)C(=O)N[C@@H](CCC(=O)N[C@@H](CCC(=O)N[C@@H](CCC(=O)N[C@@H](CCC(=O)O)C(=O)O)C(=O)O)C(=O)O)C(=O)O)c34)cc2)c1	> 100 µM
Cc1ccc(F)c(NC(=O)Nc2ccc(-c3cccc4[nH]nc(NC(=O)CCCCCNC(=O)C[C@H](N)C(=O)N[C@@H](CCC(=O)N[C@@H](CCC(=O)N[C@@H](CCC(=O)N[C@@H](CCC(=O)O)C(=O)O)C(=O)O)C(=O)O)C(=O)O)c34)cc2)c1	> 100 µM
Cc1ccc(F)c(NC(=O)Nc2ccc(-c3cccc4[nH]nc(NC(=O)C[C@H](N)C(=O)N[C@@H](CCC(=O)N[C@@H](CCC(=O)N[C@@H](CCC(=O)N[C@@H](CCC(=O)O)C(=O)O)C(=O)O)C(=O)O)C(=O)O)c34)cc2)c1	7.11 µM
